Target: panel of 255 wild-type kinases (Homo sapiens, UniProt Q13237)
Sequence (Q13237 1-762): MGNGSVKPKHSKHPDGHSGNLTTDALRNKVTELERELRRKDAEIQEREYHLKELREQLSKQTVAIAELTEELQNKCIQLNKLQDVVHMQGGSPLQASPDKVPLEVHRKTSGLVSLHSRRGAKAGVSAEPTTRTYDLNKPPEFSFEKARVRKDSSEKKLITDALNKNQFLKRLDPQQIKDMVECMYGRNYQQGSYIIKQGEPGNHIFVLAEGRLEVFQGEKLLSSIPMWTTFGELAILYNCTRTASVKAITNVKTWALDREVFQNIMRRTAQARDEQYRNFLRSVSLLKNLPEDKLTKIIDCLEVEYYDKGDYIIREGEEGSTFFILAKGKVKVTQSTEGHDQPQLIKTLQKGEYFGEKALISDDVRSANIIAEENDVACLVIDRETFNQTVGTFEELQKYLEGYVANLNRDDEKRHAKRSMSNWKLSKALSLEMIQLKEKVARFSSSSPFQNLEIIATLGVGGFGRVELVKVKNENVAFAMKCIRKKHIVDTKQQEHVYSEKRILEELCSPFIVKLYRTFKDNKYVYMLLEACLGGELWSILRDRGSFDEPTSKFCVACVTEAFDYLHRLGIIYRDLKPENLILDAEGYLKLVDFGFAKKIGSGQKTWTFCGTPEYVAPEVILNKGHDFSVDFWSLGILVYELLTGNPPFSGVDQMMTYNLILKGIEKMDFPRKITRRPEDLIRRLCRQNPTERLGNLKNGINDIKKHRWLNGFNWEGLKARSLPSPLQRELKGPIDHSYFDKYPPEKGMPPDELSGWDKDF
Test: Kinase panel profiling at 1 µmol/L (MSA or IMAP), percentage inhibition
Type: biochemical
Conditions: CGK2 kinase assay; 1 µmol/L single concentration; read-out: %-inhibition CGK2
I'd be grateful if you could share measured inhibition at 1 µM for these entries.
Give bare numbers, in %.

Give inhibition at 1 µM for each of the items listed below.
1. Cn1cc(-c2cc3c(N4CCN(c5ncc([C@@](C)(N)c6ccc(F)cc6)cn5)CC4)ncnn3c2)cn1
2. Cn1cnc2c(F)c(Nc3ccc(Br)cc3Cl)c(C(=O)NOCCO)cc21
3. CN1CCN(c2ccc(C(=O)Nc3n[nH]c4ccc(Cc5cc(F)cc(F)c5)cc34)c(NC3CCOCC3)c2)CC1
4. CCN1CCN(c2ccc(Nc3cc(N(C)C(=O)Nc4c(Cl)c(OC)cc(OC)c4Cl)ncn3)cc2)CC1
5. CCn1c(=O)c(-c2cc(NC(=O)Nc3ccccc3)c(F)cc2Br)cc2cnc(NC)cc21
6. C[C@H](Nc1ncnc2nc[nH]c12)c1cc2cccc(Cl)c2c(=O)n1-c1ccccc1

-- reply
1. 4.65
2. -1.64
3. 4.42
4. -2
5. 0.547
6. -0.775
